These entries and their values trace back to ChEMBL document CHEMBL1138210.

- MEASURED_ON: Androgen receptor (Rattus norvegicus, UniProt P15207)
- Sequence (P15207 whole entry): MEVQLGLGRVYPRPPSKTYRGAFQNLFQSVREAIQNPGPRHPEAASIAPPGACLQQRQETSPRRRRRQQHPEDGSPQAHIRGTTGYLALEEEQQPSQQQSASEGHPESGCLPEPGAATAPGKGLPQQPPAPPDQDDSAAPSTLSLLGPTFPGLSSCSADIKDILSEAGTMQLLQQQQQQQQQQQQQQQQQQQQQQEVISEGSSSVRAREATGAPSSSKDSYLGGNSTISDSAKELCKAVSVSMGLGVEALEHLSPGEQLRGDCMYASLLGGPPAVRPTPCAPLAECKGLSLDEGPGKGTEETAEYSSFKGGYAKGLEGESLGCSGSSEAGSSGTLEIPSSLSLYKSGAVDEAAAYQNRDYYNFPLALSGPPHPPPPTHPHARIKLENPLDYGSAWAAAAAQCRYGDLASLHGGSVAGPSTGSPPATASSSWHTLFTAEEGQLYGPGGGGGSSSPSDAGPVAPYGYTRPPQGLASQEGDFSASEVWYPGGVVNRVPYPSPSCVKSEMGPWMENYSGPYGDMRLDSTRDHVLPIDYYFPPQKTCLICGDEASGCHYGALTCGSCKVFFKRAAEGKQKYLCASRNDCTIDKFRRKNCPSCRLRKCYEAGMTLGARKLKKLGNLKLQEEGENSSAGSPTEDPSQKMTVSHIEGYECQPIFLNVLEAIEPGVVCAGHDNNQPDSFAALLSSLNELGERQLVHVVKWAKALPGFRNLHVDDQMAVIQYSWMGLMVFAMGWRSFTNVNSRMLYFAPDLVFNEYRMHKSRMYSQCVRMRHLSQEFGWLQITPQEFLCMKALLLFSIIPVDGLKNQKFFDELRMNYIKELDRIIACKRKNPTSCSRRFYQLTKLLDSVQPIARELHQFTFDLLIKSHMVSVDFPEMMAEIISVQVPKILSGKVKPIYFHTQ
pEC50: −log10 of the molar value.
RECORDED_METRIC: pEC50

- COMPOUND: "O=C1[C@H]2C[C@@H](O)CN2C(=O)N1c1ccc([N+](=O)[O-])c2ccccc12"
  RECORDED_METRIC: "pEC50"
  CENSORING_OPERATOR: "="
  RECORDED_VALUE: 6.49
- COMPOUND: "N#Cc1ccc(N2C(=O)[C@@H]3[C@H](O)CCN3C2=O)c2ccccc12 (single isomer, unassigned)"
  RECORDED_METRIC: "pEC50"
  CENSORING_OPERATOR: "="
  RECORDED_VALUE: 5.89
- COMPOUND: "O=C1[C@@H]2[C@H](O)CCN2C(=O)N1c1ccc([N+](=O)[O-])c2ccccc12"
  RECORDED_METRIC: "pEC50"
  CENSORING_OPERATOR: "="
  RECORDED_VALUE: 8.82
- COMPOUND: "N#Cc1ccc(N2C(=O)[C@@H]3[C@H](O)CCN3C2=O)c2ccccc12"
  RECORDED_METRIC: "pEC50"
  CENSORING_OPERATOR: "="
  RECORDED_VALUE: 8.64
- COMPOUND: "N#Cc1ccc(N2C(=O)C3C(O)CCN3C2=O)c2ccccc12 (racemic)"
  RECORDED_METRIC: "pEC50"
  CENSORING_OPERATOR: "="
  RECORDED_VALUE: 8.20
- COMPOUND: "N#Cc1ccc(N2C(=O)[C@H]3[C@@H]4CC[C@@H](C4)N3C2=O)c2ccccc12"
  RECORDED_METRIC: "pEC50"
  CENSORING_OPERATOR: "<"
  RECORDED_VALUE: 6.00
- COMPOUND: "O=C1C2CCCN2C(=O)N1c1ccc([N+](=O)[O-])c2ccccc12 (configuration not stated)"
  RECORDED_METRIC: "pEC50"
  CENSORING_OPERATOR: "="
  RECORDED_VALUE: 6.57
